// provenance: the supplement of paper PMC9262897

growth values by entry
- Tested on: E. coli TESEC Mtb DapB
- assay-summary: growth (OD600 after 10 h); higher = more growth (less inhibition)
- applied-conditions: arabinose induction (level): Low; compound 0.1 mM; raw OD600 reference: median of DMSO wells 0.227, cell-free background 0.041
Counter-ions that a name gives are not always drawn.
The answer should be written as a number, with no unit following it.

Recorded growth, per entry:
{"columns": ["compound", "endpoint-value"],
 "data": [
  ["Nc1ccccc1S(N)(=O)=O [2-Aminobenzenesulfonamide]", 0.202],
  ["C[C@]12CC[C@@H]3c4ccc(O)cc4CC[C@H]3[C@@H]1C[C@@H](O)[C@@H]2O", 0.203],
  ["C=C[C@H]1CN2CC[C@H]1C[C@@H]2[C@@H](O)c1ccnc2ccc(OC)cc12 [Quinidine hydrochloride monohydrate]", 0.229],
  ["OCCN(CCO)c1nc(N2CCCCC2)c2nc(N(CCO)CCO)nc(N3CCCCC3)c2n1", 0.205],
  ["Oc1c(I)cc(Cl)c2cccnc12", 0.0551]
]}

Please find the next compound below.
For the compound OCCOCCN1CCN(C2=Nc3ccccc3Sc3ccccc32)CC1 [Quetiapine hemifumarate] , give its measured growth value. 0.187
